assay: pharmacokinetic analysis after oral administration in SD rats; type: in vivo; conditions: SD, rat, plasma, po, 10 mg/kg, 10 mg/kg based on vactosertib, read-out: maximum plasma concentration Cmax
value.kind: Cmax (µg/mL)
Give your result in µg/mL as a bare value.

Would you mind telling me what Cmax value was observed for Cc1cccc(-c2[nH]c(CNc3ccccc3F)nc2-c2ccc3ncnn3c2)n1 [Vactosertib aqueaous solution] ?
2.77

----------
Experiment: pharmacokinetic analysis after oral administration in SD rats
Format: in vivo
Conditions: SD, rat, plasma, po, 10 mg/kg, 10 mg/kg based on vactosertib
Method: In order to confirm a change in plasma concentration in actual oral administration of the bentonite/vactosertib complex, a pharmacokinetic analysis test was performed using SD rats of about 7 weeks of age. The existing vactosertib powder, an aqueous solution dissolved with the vactosertib powder in a pH 3 buffer solution, and the bentonite/vactosertib complex were used as samples and a dose was set to 10 mg/kg based on the drug (that is, vactosertib) amount. […]
value.kind: half-life (min)
Give your result in min as a bare value.

Would you mind telling me what half-life value was observed for `Cc1cccc(-c2[nH]c(CNc3ccccc3F)nc2-c2ccc3ncnn3c2)n1` ?
45.9
